inhibition at 100 µM values, listed per item
system: HepG2 cells; assay: HepG2 assay: 14C 2-deoxy-D-glucose transport into HepG2 cells; assay type: cell-based; conditions: Homo sapiens, test compound 100 μM
Entry rule: numbers only, all in %.

MOLECULE	UNIT_ABBREV	inhibition at 100 µM
CC(=O)O[C@@H]1OC(CN2CCN(c3ccccc3Cl)CC2)=C[C@H](OC(C)=O)[C@H]1OC(C)=O	%	19.9
CC(=O)O[C@@H]1O[C@H](C(=O)N2CCN(C)CC2)[C@@H](OC(C)=O)[C@H](OC(C)=O)[C@H]1OC(C)=O	%	6.32
Cc1ccc(-c2cn([C@H]3C(O)O[C@H](CO)[C@@H](O)[C@@H]3O)nn2)cc1 (stereo partly shown)	%	21.1
CC(=O)O[C@@H]1OC(CN2CCN(c3ccc(Br)cc3)CC2)=C[C@H](OC(C)=O)[C@H]1OC(C)=O	%	23.9
C=CCN1CCN(C(=O)[C@H]2O[C@@H](OC(C)=O)[C@H](OC(C)=O)[C@@H](OC(C)=O)[C@@H]2OC(C)=O)CC1	%	7.67
O=[N+]([O-])c1ccc(NCc2cn(C[C@H]3OC(O)[C@H](O)[C@@H](O)[C@@H]3O)nn2)c2nonc12 (stereo partly shown)	%	31.2
CC(=O)O[C@@H]1O[C@H](C(=O)N2CCN(C(C)C)CC2)[C@@H](OC(C)=O)[C@H](OC(C)=O)[C@H]1OC(C)=O	%	7.75
O=[N+]([O-])c1ccc(NCCCCCCc2cn([C@@H]3O[C@H](CO)[C@@H](O)[C@H](O)[C@H]3O)nn2)c2nonc12	%	23.1
O=C([C@H]1OC(O)[C@H](O)[C@@H](O)[C@@H]1O)N1CCN(c2ccc(Br)cc2)CC1 (stereo partly shown)	%	20.6
OC[C@H]1OC(O)[C@H](n2cc(-c3ccccc3)nn2)[C@@H](O)[C@@H]1O (stereo partly shown)	%	12.4

Lookup: Can you look up the measured inhibition at 100 µM of COc1cccc(N2CCN(C(=O)[C@H]3OC(O)[C@H](O)[C@@H](O)[C@@H]3O)CC2)c1 (stereo partly shown) for me?
Found: 12.7

Lookup: Can you look up the measured inhibition at 100 µM of COc1ccc2cc(-c3cn([C@H]4C(O)O[C@H](CO)[C@@H](O)[C@@H]4O)nn3)ccc2c1 (stereo partly shown) for me?
Found: 14.8

Lookup: Can you look up the measured inhibition at 100 µM of OC1O[C@H](Cn2cc(-c3ccccc3)nn2)[C@@H](O)[C@H](O)[C@H]1O (stereo partly shown) for me?
Found: 6.14

* * *

test system: HepG2 cells; assay: HepG2 assay: 14C 2-deoxy-D-glucose transport into HepG2 cells; format: cell-based; conditions: Homo sapiens, test compound 100 μM
// no (0) strictly below 10% in inhibition at 100 µM; yes (1) otherwise

Lookup: Reported inhibition at 100 µM reaches at least 10% for CC(=O)O[C@@H]1O[C@H](C(=O)N2CCN(C3CCCCC3)CC2)[C@@H](OC(C)=O)[C@H](OC(C)=O)[C@H]1OC(C)=O [Example 9] ?
Found: no (0)

Lookup: Reported inhibition at 100 µM reaches at least 10% for COC(=O)c1ccc(-c2cn([C@H]3C(O)O[C@H](CO)[C@@H](O)[C@@H]3O)nn2)cc1 (stereo partly drawn) [Example 58] ?
Found: yes (1)

Lookup: Reported inhibition at 100 µM reaches at least 10% for COc1ccccc1N1CCN(C(=O)[C@H]2OC(O)[C@H](O)[C@@H](O)[C@@H]2O)CC1 (stereo partly drawn) [Example 39] ?
Found: yes (1)

Lookup: Reported inhibition at 100 µM reaches at least 10% for CC(=O)O[C@@H]1OC(CN2CCN(c3ccc(Cl)cc3)CC2)=C[C@H](OC(C)=O)[C@H]1OC(C)=O [Example 48] ?
Found: yes (1)

Lookup: Reported inhibition at 100 µM reaches at least 10% for OC[C@H]1OC(O)[C@H](n2cc(CCCCl)nn2)[C@@H](O)[C@@H]1O (stereo partly drawn) [Example 66] ?
Found: no (0)

Lookup: Reported inhibition at 100 µM reaches at least 10% for CN(C)c1cccc2c(S(=O)(=O)NCc3cn([C@H]4C(O)O[C@H](CO)[C@@H](O)[C@@H]4O)nn3)cccc12 (stereo partly drawn) [Example 54] ?
Found: yes (1)

Lookup: Reported inhibition at 100 µM reaches at least 10% for COc1ccc(N2CCN(C(=O)[C@H]3OC(O)[C@H](O)[C@@H](O)[C@@H]3O)CC2)cc1 (stereo partly drawn) [Example 37] ?
Found: no (0)

Lookup: Reported inhibition at 100 µM reaches at least 10% for O=C([C@H]1OC(O)[C@H](O)[C@@H](O)[C@@H]1O)N1CCN(C2CCCCC2)CC1 (stereo partly drawn) [Example 29] ?
Found: yes (1)

Lookup: Reported inhibition at 100 µM reaches at least 10% for O=[N+]([O-])c1ccc(CCCCCCCc2cn([C@H]3C(O)O[C@H](CO)[C@@H](O)[C@@H]3O)nn2)c2nonc12 (stereo partly drawn) [Example 67] ?
Found: yes (1)

Lookup: Reported inhibition at 100 µM reaches at least 10% for OC[C@H]1OC(O)[C@H](n2cc(CCCc3ccccc3)nn2)[C@@H](O)[C@@H]1O (stereo partly drawn) [Example 57] ?
Found: yes (1)

Lookup: Reported inhibition at 100 µM reaches at least 10% for OC[C@H]1OC(O)[C@H](n2cc(CC3CCCCC3)nn2)[C@@H](O)[C@@H]1O (stereo partly drawn) [Example 64] ?
Found: no (0)

Lookup: Reported inhibition at 100 µM reaches at least 10% for COc1ccccc1N1CCN(CC2=C[C@H](OC(C)=O)[C@@H](OC(C)=O)[C@H](OC(C)=O)O2)CC1 [Example 52] ?
Found: yes (1)

Lookup: Reported inhibition at 100 µM reaches at least 10% for Cc1ccc(-c2nc(C)c(-c3cn([C@H]4C(O)O[C@H](CO)[C@@H](O)[C@@H]4O)nn3)c(Cl)n2)cc1 (stereo partly drawn) [Example 61] ?
Found: no (0)

Lookup: Reported inhibition at 100 µM reaches at least 10% for CCCCCc1cn([C@H]2C(O)O[C@H](CO)[C@@H](O)[C@@H]2O)nn1 (stereo partly drawn) [Example 65] ?
Found: no (0)

Lookup: Reported inhibition at 100 µM reaches at least 10% for CN(Cc1ccccc1)Cc1cn([C@H]2C(O)O[C@H](CO)[C@@H](O)[C@@H]2O)nn1 (stereo partly drawn) [Example 59] ?
Found: no (0)

* * *

test system: HepG2 cells; experiment: HepG2 assay: 14C 2-deoxy-D-glucose transport into HepG2 cells; format: cell-based; details: Homo sapiens, test compound 100 μM
// not met strictly below 10% in inhibition at 100 µM; met otherwise

Lookup: Reported inhibition at 100 µM reaches at least 10% for COc1cccc(N2CCN(CC3=C[C@H](OC(C)=O)[C@@H](OC(C)=O)[C@H](OC(C)=O)O3)CC2)c1 [Example 51] ?
Found: met

* * *

Tested on: HepG2 cells
Assay: HepG2 assay: 14C 2-deoxy-D-glucose transport into HepG2 cells
Type: cell-based
Details: Homo sapiens, test compound 100 μM
Method: For measurement of ^14C 2-deoxy-D-glucose transport into HepG2 cells, cells were seeded in collagen treated 96-well plates (Cytostar-T Plates Perkin Elmer, 40.000 cells/200 μ/well) in medium complete (MEM W/GLUT-I, EARLES (Gibco #41090) /NEAA/PS/10% FCS) and grown for 48 hours. […] Plates were measured in a 96-well Wallac Microbeta device. […]
// false (0) strictly below 6% in inhibition at 100 µM; true (1) otherwise

# count of solved cases: 6
COMPOUND	STUDY_TARGET	CAT
CC(=O)O[C@@H]1O[C@H](C(=O)N2CCN(c3ccccc3)CC2)[C@@H](OC(C)=O)[C@H](OC(C)=O)[C@H]1OC(C)=O [Example 12]	HepG2 cells	false (0)
CC(=O)O[C@@H]1OC(CN2CCN(c3ccccc3)CC2)=C[C@H](OC(C)=O)[C@H]1OC(C)=O [Example 45]	HepG2 cells	true (1)
CN1CCN(C(=O)[C@H]2OC(O)[C@H](O)[C@@H](O)[C@@H]2O)CC1 (stereo partly shown) [Example 21]	HepG2 cells	true (1)
CCN1CCN(C(=O)[C@H]2O[C@@H](OC(C)=O)[C@H](OC(C)=O)[C@@H](OC(C)=O)[C@@H]2OC(C)=O)CC1 [Example 2]	HepG2 cells	true (1)
CC(=O)O[C@@H]1O[C@H](C(=O)N2CCN(c3ccc(Cl)cc3)CC2)[C@@H](OC(C)=O)[C@H](OC(C)=O)[C@H]1OC(C)=O [Example 14]	HepG2 cells	false (0)
CCN1CCN(C(=O)[C@H]2OC(O)[C@H](O)[C@@H](O)[C@@H]2O)CC1 (stereo partly shown) [Example 22]	HepG2 cells	true (1)

Moving on to another compound below.
Lookup: Reported inhibition at 100 µM reaches at least 6% for O=[N+]([O-])c1ccc(NCc2cn([C@H]3C(O)O[C@H](CO)[C@@H](O)[C@@H]3O)nn2)c2nonc12 (stereo partly shown) [Example 63] ?
Found: true (1)

Source of measurements: patent US11090364B2
